Values from ChEMBL document CHEMBL1129288

Field: pIC50. Provide a value for each of the molecules that follow.
biological target: Geranylgeranyl transferase type I (Homo sapiens, UniProt P49354+P53609); test: In vitro inhibition of Geranylgeranyl transferase type I
Interpret pIC50 as the negative base-10 log of the concentration measured in mol/L.

Q: Under Geranylgeranyl transferase type I (Homo sapiens, UniProt P49354+P53609): pIC50 value of `N[C@@H](CS)CNCc1cccc(-c2cccc(C(=O)O)c2)c1` ?
A: 4.46

Q: Entry to check: `N[C@@H](CS)CNc1ccc(-c2ccccc2C(=O)O)cc1`
A: 3.85

Q: Entry to check: `N[C@@H](CS)C(=O)Nc1ccc(-c2cccc(C(=O)O)c2)cc1`
A: 4.00

Q: Entry to check: `N[C@@H](CS)CNc1ccc(-c2cccc(C(=O)O)c2)cc1`
A: 4.00

Q: Entry to check: `COc1cc(NC[C@@H](N)CS)ccc1-c1cccc(C(=O)O)c1`
A: 4.36

====

target: Protein farnesyltransferase (Homo sapiens, UniProt P49354+P49356); test: Inhibition of human Burkitt lymphoma (Daudi) cell farnesyltransferase; conditions: target entry is the homologue from another species
Readout Label: IC50 (nM)
The answer is to be given in nM; state only the numeric part.

Q: If you can, please state the reported IC50 value of `N[C@@H](CS)CNc1ccc(-c2ccccc2C(=O)O)cc1` .
A: 543

====

target: Protein farnesyltransferase (Homo sapiens, UniProt P49354+P49356); test: In vitro inhibition of Farnesyltransferase; type: protein-complex assay
Just a reminder that ties go to Not satisfied: only IC50 strictly below 0.7 µM counts as Satisfied.

Q: Determine whether this compound shows IC50 lower than 0.7 µM (ties excluded): `CC[C@H](C)[C@H](NC(=O)[C@@H](NC(=O)[C@@H](N)CS)C(C)C)C(=O)N[C@@H](CCSC)C(=O)O`
A: Satisfied

Q: Entry to check: `N[C@@H](CS)C(=O)Nc1ccc(-c2cccc(C(=O)O)c2)cc1`
A: Not satisfied

Q: Entry to check: `COC(=O)c1cccc(-c2ccc(NC[C@@H](N)CS)cc2)c1`
A: Not satisfied

Q: Entry to check: `N[C@@H](CS)CNc1ccc(-c2cccc(C(=O)O)c2)cc1`
A: Satisfied

Q: Entry to check: `N[C@@H](CS)C(=O)NCc1cccc(-c2cccc(C(=O)O)c2)c1`
A: Not satisfied

Q: Entry to check: `N[C@@H](CS)CNCc1cccc(-c2cccc(C(=O)O)c2)c1`
A: Not satisfied

Q: Entry to check: `COc1cc(NC[C@@H](N)CS)ccc1-c1cccc(C(=O)O)c1`
A: Satisfied

Q: Entry to check: `N[C@@H](CS)CNc1ccc(-c2ccccc2)cc1`
A: Not satisfied

Q: Entry to check: `CSCC[C@H](NC(=O)c1ccc(NC(=O)[C@@H](N)CS)cc1)C(=O)O`
A: Satisfied
